SYSTEM: 5α-Reductase (Homo sapiens, UniProt P18405)
Construct: host or cells: Hs68 human genital skin fibroblasts
Sequence (P18405 whole entry): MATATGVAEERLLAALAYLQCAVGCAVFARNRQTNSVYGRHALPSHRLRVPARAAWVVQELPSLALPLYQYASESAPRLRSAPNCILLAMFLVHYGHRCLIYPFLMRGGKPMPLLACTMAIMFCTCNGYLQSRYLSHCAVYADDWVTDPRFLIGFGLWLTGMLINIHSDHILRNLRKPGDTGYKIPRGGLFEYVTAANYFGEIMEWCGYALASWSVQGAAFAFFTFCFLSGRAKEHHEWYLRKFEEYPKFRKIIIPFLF
ASSAY_PROCEDURE: Inhibition of 5α-reductase in Hs68 human genital skin fibroblasts (conversion of labelled testosterone, TLC)
Format: cell-based
PARTICULARS: 1.0 μM test compound; Hs68 cells; 12 μM testosterone; 4 h; read-out: % Inhibition
Ranges used to classify inhibition at 1 µM: lower range: < 20%; middle range: ≥ 20% and < 40%; upper range: ≥ 40%

Use the examples below as a reference point.
# SMILES_STRING, CLASSIFICATION
records = [
    ("O=C1CCC2=C(CCc3cccc(Br)c32)N1", "lower range"),
    ("O=C1CCC2=C(CCc3cccc(Cl)c32)N1", "lower range"),
    ("O=C1CCC2=C(CCc3c(F)cccc32)N1", "middle range"),
    ("CN1C(=O)CCC2=C1CCc1cccc(F)c12", "middle range"),
    ("O=C1CCC2=C(CCc3cc(Cl)ccc32)N1", "upper range"),
]

--- query ---
Where would COc1cc2c(cc1OC)C1=C(CC2)NC(=O)CC1 land among the classes by reported inhibition at 1 µM? middle range
